# Test system: BT-549
# procedure_summary: NCI 60 human tumor cell line screen (SRB)
# Format: cell-based
# applied_conditions: BT-549 (Breast Cancer); 48 h
measured_quantity: Log10GI50
Enter the number alone.

Completed entries (count: 2):
smiles_structure: C[C@]1(C(=O)[C@H](Cc2ccccc2)NC(=O)[C@H](COC(F)F)NC(=O)[C@H](COC(F)F)NC(=O)CN2CCOCC2)CO1
reported_measurement: −7.73
--
smiles_structure: Cc1ncc(C(=O)N[C@@H](COC(F)F)C(=O)N[C@@H](COC(F)F)C(=O)N[C@@H](Cc2ccccc2)C(=O)[C@@]2(C)CO2)s1
reported_measurement: −7.49

# input For the compound shown here, "CC(C)C[C@H](NC(=O)[C@H](Cc1ccccc1)NC(=O)[C@H](COC(F)F)NC(=O)CN1CCOCC1)C(=O)[C@@]1(C)CO1" , give the reported Log10GI50.
# output −7.73

# input Please give the result for "C[C@]1(C(=O)[C@H](Cc2ccccc2)NC(=O)[C@H](Cc2ccccc2)NC(=O)[C@H](COC(F)F)NC(=O)CN2CCOCC2)CO1" too.
# output −7.26

###

# Tested on: HCT-116
# procedure_summary: NCI 60 human tumor cell line screen (SRB)
# Assay type: cell-based
# applied_conditions: HCT-116 (Colon Cancer); 48 h
measured_quantity: Log10TGI50
Enter the number alone.

Completed entries (count: 3):
smiles_structure: C[C@]1(C(=O)[C@H](Cc2ccccc2)NC(=O)[C@H](COC(F)F)NC(=O)[C@H](COC(F)F)NC(=O)CN2CCOCC2)CO1
measured_quantity: Log10TGI50
reported_measurement: −7.30
--
smiles_structure: CC(C)C[C@H](NC(=O)[C@H](Cc1ccccc1)NC(=O)[C@H](COC(F)F)NC(=O)CN1CCOCC1)C(=O)[C@@]1(C)CO1
measured_quantity: Log10TGI50
reported_measurement: −7.30
--
smiles_structure: Cc1ncc(C(=O)N[C@@H](COC(F)F)C(=O)N[C@@H](COC(F)F)C(=O)N[C@@H](Cc2ccccc2)C(=O)[C@@]2(C)CO2)s1
measured_quantity: Log10TGI50
reported_measurement: −6.71

Could you now consider this next molecule?
# input For the molecule shown here, "C[C@]1(C(=O)[C@H](Cc2ccccc2)NC(=O)[C@H](Cc2ccccc2)NC(=O)[C@H](COC(F)F)NC(=O)CN2CCOCC2)CO1" , give the reported Log10TGI50.
# output −5.91

###

# Test system: RXF 393
# procedure_summary: NCI 60 human tumor cell line screen (SRB)
# Type: cell-based
# applied_conditions: RXF 393 (Renal Cancer); 48 h
measured_quantity: Log10TGI50
Enter the number alone.

Completed entries (count: 3):
smiles_structure: C[C@]1(C(=O)[C@H](Cc2ccccc2)NC(=O)[C@H](Cc2ccccc2)NC(=O)[C@H](COC(F)F)NC(=O)CN2CCOCC2)CO1
reported_measurement: −6.70

smiles_structure: C[C@]1(C(=O)[C@H](Cc2ccccc2)NC(=O)[C@H](COC(F)F)NC(=O)[C@H](COC(F)F)NC(=O)CN2CCOCC2)CO1
reported_measurement: −7.25

smiles_structure: CC(C)C[C@H](NC(=O)[C@H](Cc1ccccc1)NC(=O)[C@H](COC(F)F)NC(=O)CN1CCOCC1)C(=O)[C@@]1(C)CO1
reported_measurement: −7.25

Could you now consider this next compound?
# input For the compound shown here, "Cc1ncc(C(=O)N[C@@H](COC(F)F)C(=O)N[C@@H](COC(F)F)C(=O)N[C@@H](Cc2ccccc2)C(=O)[C@@]2(C)CO2)s1" , give the reported Log10TGI50.
# output −6.41
